# Target entity: mu opioid receptor (MOR) (UniProt P35372)
# Sequence (P35372 whole entry): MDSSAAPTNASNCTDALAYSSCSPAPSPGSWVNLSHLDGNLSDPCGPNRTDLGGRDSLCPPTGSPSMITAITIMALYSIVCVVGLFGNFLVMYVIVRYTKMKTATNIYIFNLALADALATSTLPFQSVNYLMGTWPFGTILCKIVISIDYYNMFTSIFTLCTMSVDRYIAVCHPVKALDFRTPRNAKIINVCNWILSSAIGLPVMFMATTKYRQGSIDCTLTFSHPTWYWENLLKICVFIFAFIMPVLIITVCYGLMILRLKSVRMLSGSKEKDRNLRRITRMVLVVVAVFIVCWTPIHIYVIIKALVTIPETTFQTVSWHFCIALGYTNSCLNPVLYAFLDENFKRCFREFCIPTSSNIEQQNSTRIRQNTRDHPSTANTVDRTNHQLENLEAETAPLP
# Experiment description: competition
pKi: −log10 of the molar value. Non-standard residues stand in square brackets, D forms with d. No end group written: not given here. *: point of attachment. NH(3,5-(CF3)2-benzyl) = FC(F)(F)c1cc(CN*)cc(C(F)(F)F)c1; Phe(4-F) = N[C@@H](Cc1ccc(F)cc1)C(=O)O; NMeF = CN[C@@H](Cc1ccccc1)C(=O)O
The reader will find reported pKi values listed item by item below.
Measured parameter: pKi

Binder	Measured parameter	Observed result
XAGFPLW (Dmt1, D-Ala2, Phe(4-F)4; C-terminal NH-Bn(3',5'-(CF3)2)) [AKG127]	pKi	9.00
Y[dA]G[Phe(4-F)]PLW-{NH(3,5-(CF3)2-benzyl)} [AKG190]	pKi	8.40
XAGFPLW (Dmt1, D-Ala2, Phe(4-Br)4; C-terminal NH-Bn(3',5'-(CF3)2)) [AKG192]	pKi	8.30
XAGFPLW (Dmt1, D-Ala2; C-terminal NH-Bn(3',5'-(CF3)2)) [AKG116]	pKi	8.52
XAGFPLW (Dmt1, D-Ala2, Phe(4-I)4; C-terminal NH-Bn(3',5'-(CF3)2)) [AKG193]	pKi	8.22
XAGFPLW (Dmt1, D-Ala2, NMePhe(4-F)4; C-terminal NH-Bn(3',5'-(CF3)2)) [AKG128]	pKi	9.00
XAGFPLW (Dmt1, D-Ala2, Phe(4-Cl)4; C-terminal NH-Bn(3',5'-(CF3)2)) [AKG191]	pKi	8.70
XAGFPLW (Dmt1, D-Ala2, NMePhe4; C-terminal NH-Bn(3',5'-(CF3)2)) [AKG115]	pKi	9.00
Y[dA]G[NMeF]PLW-{NH(3,5-(CF3)2-benzyl)} [AKG117]	pKi	7.57
Y[dA]GFPLW-{NH(3,5-(CF3)2-benzyl)} [TY012]	pKi	8.02
